Origin of the recorded values: PubChem BioAssay AID1159580

Assay: chemical genetic growth profiling, strain panel (AID 1159580)
Conditions: S. cerevisiae deletion strains, growth OD, locus YOR080W, strain dia2
Among all 5,500 compounds or so, about 2,000 (36%) were called active. Inconclusive results (about 18%) are left out. Cut-off read from the data, not from the text of the source: active = normalized growth mostly below about 0.91 (no sharp cut-off); inconclusive = no clear call, values can overlap the other calls; inactive = mostly above about 0.92. The list shows a part of the results. Where a SMILES comes first, the peptide text is derived from it. Side-chain parts run from the residue outwards. [ ]: non-standard residue; d: D form. The star is where a group is joined. X1 = CCC(C)C(N)C1=NC(C(=O)*)CS1; Orn = NCCC[CH](N)C(=O)O
Possible outcomes: t for active, f for inactive

molecule	classAssignment
CO[C@H]1C[C@H](O[C@H]2[C@H](C)[C@@H](OC3O[C@H](C)C[C@H](N(C)C)[C@H]3OC(C)=O)[C@@H](C)C[C@]3(CO3)C(=O)[C@H](C)[C@@H](OC(C)=O)[C@@H](C)[C@@H](C)OC(=O)[C@@H]2C)O[C@@H](C)[C@@H]1OC(C)=O (some centres undefined)	f
CC(=O)OC[C@H]1O[C@@H](Oc2cc(OC(C)=O)c3c(=O)cc(-c4ccc(OC(C)=O)cc4)oc3c2)[C@H](OC(C)=O)[C@@H](OC(C)=O)[C@@H]1OC(C)=O	f
O=C(O)c1cc(=O)c2cccc(O)c2[nH]1	f
COc1cccc(OC)c1C(=O)N[C@@H]1C(=O)N2[C@@H]1SC(C)(C)[C@@H]2C(=O)O	f
CC1(C)S[C@@H]2[C@H](NC(=O)[C@H](C(=O)O)c3cccs3)C(=O)N2[C@H]1C(=O)O	f
CCC(C)C(N)C1=NC(C(=O)NC(CC(C)C)C(=O)NC(CCC(=O)O)C(=O)NC(C(=O)NCCCCC2NC(=O)C(CC(N)=O)NC(=O)C(CC(=O)O)NC(=O)C(Cc3cnc[nH]3)NC(=O)C(Cc3ccccc3)NC(=O)C(C(C)CC)NC(=O)C(CCCN)NC2=O)C(C)CC)CS1 (stereo not drawn) (cyclo(DNK([Ile-Glu-Leu-X1])[Orn]IFH); configuration not given here)	f
NCCc1cc(O)c(O)cc1O	f
O=C(O)c1cc(=O)c2c(Cl)cc(Cl)cc2[nH]1	f
CN(C)CCc1c[nH]c2ccc(C[C@H]3COC(=O)N3)cc12	f
OCCN1CCN(CCCN2c3ccccc3Sc3ccc(C(F)(F)F)cc32)CC1	f
CCOc1ccc(NC(C)=O)cc1	f
CNS(=O)(=O)Cc1ccc2[nH]cc(CCN(C)C)c2c1	f
O=C(OC[C@H]1O[C@H](OC(=O)c2cc(O)c(O)c(OC(=O)c3cc(O)c(O)c(O)c3)c2)[C@H](OC(=O)c2cc(O)c(O)c(OC(=O)c3cc(O)c(O)c(O)c3)c2)[C@@H](OC(=O)c2cc(O)c(O)c(OC(=O)c3cc(O)c(O)c(O)c3)c2)[C@@H]1OC(=O)c1cc(O)c(O)c(OC(=O)c2cc(O)c(O)c(O)c2)c1)c1cc(O)c(O)c(OC(=O)c2cc(O)c(O)c(O)c2)c1	t
Cc1onc(-c2c(Cl)cccc2Cl)c1C(=O)N[C@@H]1C(=O)N2[C@@H]1SC(C)(C)[C@@H]2C(=O)O	f
CC1(C)S[C@@H]2[C@H](NC(=O)Cc3ccccc3)C(=O)N2[C@H]1C(=O)O	f
CCc1cccc2c3c([nH]c12)C(CC)(CC(=O)O)OCC3 (centres undefined)	f
CC(C)CC1NC(=O)C(CCCN)NC(=O)C(C(C)C)NC(=O)C2CCCN2C(=O)C(Cc2ccccc2)NC(=O)C(CC(C)C)NC(=O)C(CCCN)NC(=O)C(C(C)C)NC(=O)C2CCCN2C(=O)C(Cc2ccccc2)NC1=O (centres undefined) (cyclo(FPV[Orn]LFPV[Orn]L); configuration not given here)	f
CCOc1ccc(C(=O)c2cc(O)c(OC)c(OC)c2O)cc1	f
O=c1oc2c(O)c(O)cc3c(=O)oc4c(O)c(O)cc1c4c23	t
Cc1onc(-c2ccccc2Cl)c1C(=O)N[C@@H]1C(=O)N2[C@@H]1SC(C)(C)[C@@H]2C(=O)O	f
CC(=O)Oc1cccc2c1C(=O)c1c(OC(C)=O)cc(C(=O)O)cc1C2=O	f
CC(=O)Oc1cc2c(c(C)c1OC(C)=O)CC1OC13C2(C)CCC1(C)C2CC(C)(C(=O)O)CCC2(C)CCC13C (centres undefined)	f
COC(=O)[C@]1(C)CC[C@]2(C)CC[C@]3(C)C4=CC=C5C(=CC(=O)C(O)=C5C)[C@]4(C)CC[C@@]3(C)[C@@H]2C1	t
COc1ccc(C(=O)c2ccccc2)c(O)c1O	f
